Where do the numbers come from? From patent EP0346791B1.

test system: Male Sprague-Dawley rats; test: Behavioral assay (stereotyped behavior, PCP rating scale); format: in vivo; settings: Rattus norvegicus, sc, 95% confidence intervals in parenthesis, read-out: Stereotyped Behavior ED₅₀ s.c.
assay endpoint: ED50 (mg/kg)
The response must be a number in mg/kg with no trailing unit.

| compound | assayed target | assay endpoint | readout value |
| --- | --- | --- | --- |
| c1ccc(CC(c2ccccc2)N2CCCC2)cc1 (racemic) [Compound No. 20] | Male Sprague-Dawley rats | ED50 | 7.8 |
| OC(c1ccccc1)C(c1ccccc1)N1CCCCC1 (racemic) [Compound No. 13] | Male Sprague-Dawley rats | ED50 | 11 |
| c1ccc(CC(c2ccccc2)N2CCCCC2)cc1 (racemic) [Compound No. 1] | Male Sprague-Dawley rats | ED50 | 2.9 |
| C1=CCN(C(Cc2ccccc2)c2cccs2)CC1 (racemic) [Compound No. 15] | Male Sprague-Dawley rats | ED50 | 1.7 |

Kindly consider the entry below.
Data request: Could you share what ED50 was measured for c1ccc(CC(c2cccs2)N2CCCCC2)cc1 (racemic) [Compound No. 5] , tested on Male Sprague-Dawley rats?
Data returned: 3.5
